assay: Metabolic stability in human liver microsomes; type: in vitro ADME; details: pooled liver microsomes; human liver microsomes, NADPH; read-out: Degradation half-life HLM
QUANTITY: half-life (min)

                                   compound   quantity  scale_unit  measured
0  CCCCCCCCCCOc1cc2c(OC(=O)N3CCOCC3)c(C(=O)OCC)cnc2cc1OCC [RMB059]  half-life         min      10.6
1  CCCCCCCCCCOc1cc2c(OC(=O)N3CCN(S(C)(=O)=O)C3=O)c(C(=O)OCC)cnc2cc1OCC [RMB060]  half-life         min      13.1

====

experiment: Lipophilicity, 1-octanol/phosphate buffer pH 7.4 (LogD7.4); type: physicochemical
QUANTITY: logD at 2 h

>>> df
                                smiles_text     quantity  measured
0  CCCCCCCCCCOc1cc2c(=O)c(C(=O)NCCOCCO)c[nH]c2cc1OCC  logD at 2 h       3.2
1  CCCCCCCCCCOc1cc2c(OC(=O)N3CCOCC3)c(C(=O)OCC)cnc2cc1OCC  logD at 2 h       2.9
2  CCCCCCCCCCOc1cc2c(OC(=O)N3CCN(S(C)(=O)=O)C3=O)c(C(=O)OCC)cnc2cc1OCC  logD at 2 h       2.9

====

Listed here: items and their measured solubility at 2 h.
test: Kinetic solubility in PBS (HPLC-DAD); type: physicochemical; conditions: phosphate buffer saline (PBS); all pH levels tested (pH 2, 6.5, 7.4)

>>> print(df.to_string())
                                   compound  measured
0  CCCCCCCCCCOc1cc2c(OC(=O)N3CCOCC3)c(C(=O)OCC)cnc2cc1OCC [RMB059]    < 5 µM

Please find the next compound below.
Task item: Quick one: solubility at 2 h of CCCCCCCCCCOc1cc2c(=O)c(C(=O)NCCOCCO)c[nH]c2cc1OCC [RMB005] ?
Reply: < 5 µM

====

assay: Metabolic stability in mouse liver microsomes; format: in vitro ADME; settings: mouse liver microsomes, NADPH; read-out: Degradation half-life MLM
QUANTITY: half-life (min)

In [3]: df
Out[3]:
                                smiles_text   quantity  measured
0  CCCCCCCCCCOc1cc2c(OC(=O)N3CCN(S(C)(=O)=O)C3=O)c(C(=O)OCC)cnc2cc1OCC  half-life      14.5

[a] CCCCCCCCCCOc1cc2c(=O)c(C(=O)NCCOCCO)c[nH]c2cc1OCC
[b] CCCCCCCCCCOc1cc2c(OC(=O)N3CCOCC3)c(C(=O)OCC)cnc2cc1OCC
Task item: Given a and b , report the one with the higher recorded half-life. Answer by quoting the chosen item's label.
Reply: a
(a: 72.9 min, b: 16.6 min)

====

assay: In vivo pharmacokinetics, oral administration; design: species or system C57BL/6 mice; conditions: C57BL/6, mouse, whole blood, po, 20 mg/kg, po 20 mg/kg, mice; dosed compound measured
QUANTITY: Tmax

Task item: Would you kindly share the measured Tmax for CCCCCCCCCCOc1cc2c(=O)c(C(=O)NCCOCCO)c[nH]c2cc1OCC [RMB005] ?
Reply: ~42 min

====

test: In vivo pharmacokinetics, oral administration; parameters: species or system C57BL/6 mice; settings: DQ quantified in whole blood after po 20 mg/kg of the O-carbamate, mice; 20 mg/kg; read-out: Cmax of DQ
QUANTITY: Cmax (nM)

[a] CCCCCCCCCCOc1cc2c(O)c(C(=O)OCC)cnc2cc1OCC [DQ from RMB059]
[b] CCCCCCCCCCOc1cc2c(O)c(C(=O)OCC)cnc2cc1OCC [DQ from RMB060]
Task item: Please indicate which entry, a or b , has the lower recorded Cmax value. Please respond with the label that marks your chosen entry.
Reply: b

====

Assay: In vivo pharmacokinetics, intravenous administration
Parameters: species or system C57BL/6 mice
Conditions: C57BL/6, mouse; iv, mice, whole blood; dosed compound measured; 5 mg/kg per table footnote
Method: Healthy C57BL/6 mice each weighing approximately 25 g were maintained at the University of Cape Town animal facility. […] A quantitative LC-MS/MS assay was used to determine whole-blood concentrations of RMB005, −059 and −060. […] From these values the following PK parameters—clearance CL, volume of distribution (Vd) and oral bioavailability (BA) were determined using the non-compartmental analysis Microsoft Excel Add-In PKSolver ([Zhang et al., 2010]).
QUANTITY: clearance (mL/min/kg)
// note: answer is a bare numeric in mL/min/kg

Task item: Please report the recorded clearance for CCCCCCCCCCOc1cc2c(=O)c(C(=O)NCCOCCO)c[nH]c2cc1OCC [RMB005] .
Reply: 28.5

====

test: Kinetic solubility in PBS (HPLC-DAD); type: physicochemical; details: phosphate buffer saline (PBS), aqueous buffer, kinetic from dmso stock; PBS pH 6.5; read-out: Kinetic solubility pH 6.5
QUANTITY: solubility kinetic at 2 h

In [3]: df
Out[3]:
                                   compound                   quantity  measured
0  CCCCCCCCCCOc1cc2c(OC(=O)N3CCOCC3)c(C(=O)OCC)cnc2cc1OCC [RMB059]  solubility kinetic at 2 h    < 5 µM

Consider the additional compound presented here.
Task item: Which measured solubility kinetic at 2 h value corresponds to CCCCCCCCCCOc1cc2c(=O)c(C(=O)NCCOCCO)c[nH]c2cc1OCC [RMB005] ?
Reply: < 5 µM

====

assay: In vivo pharmacokinetics, oral administration; parameters: species or system C57BL/6 mice; conditions: C57BL/6, mouse; po 20 mg/kg, mice, whole blood; dosed compound measured; read-out: Cmax
QUANTITY: Cmax (nM)
# value in nM; strip the unit string

Task item: Would you mind telling me what Cmax value was observed for `CCCCCCCCCCOc1cc2c(=O)c(C(=O)NCCOCCO)c[nH]c2cc1OCC` ?
Reply: 490
